Assay: Drug concentration in serum and tissues by LC-MS, pharmacokinetics and BBB permeability
Format: in vivo, mice
Settings: C57BL/6, mouse, intravenous; 15 mg/kg i.v.; liver; 1 h; mean ± SD; read-out: concentration in liver
ENDPOINT_LABEL: concentration at 1 h (ng/g)
Provide only the numeric value, understood in ng/g.

Input line: Please look up its concentration at 1 h: `O=C(CCN1CCN(Cc2ccccc2)CC1)Nc1nc(-c2ccccc2)cs1`
Output line: 2960

====

Assay: Drug concentration in serum and tissues by LC-MS, pharmacokinetics and BBB permeability
Format: in vivo, mice
Details: C57BL/6, mouse, intravenous; 15 mg/kg i.v.; heart; 10 min; mean ± SD; read-out: concentration in heart
ENDPOINT_LABEL: concentration at 10 min
Report the figure along with its unit, number first.

Input line: Please look up its concentration at 10 min: `O=C(CCN1CCN(Cc2ccccc2)CC1)Nc1nc(-c2ccccc2)cs1`
Output line: 4590 ng/g

====

Experiment: Drug concentration in serum and tissues by LC-MS, pharmacokinetics and BBB permeability
Format: in vivo, mice
Details: C57BL/6, mouse, intravenous; 15 mg/kg i.v.; liver; 30 min; mean ± SD; read-out: concentration in liver
ENDPOINT_LABEL: concentration at 30 min (ng/g)
Provide only the numeric value, understood in ng/g.

Input line: Please look up its concentration at 30 min: `O=C(CCN1CCN(Cc2ccccc2)CC1)Nc1nc(-c2ccccc2)cs1`
Output line: 4710

====

Experiment: Drug concentration in serum and tissues by LC-MS, pharmacokinetics and BBB permeability
Assay type: in vivo, mice
Conditions: C57BL/6, mouse, iv; 15 mg/kg i.v.; liver; read-out: t1/2 (elimination half-life) (converted)
ENDPOINT_LABEL: half-life

Input line: Please look up its half-life: O=C(CCN1CCN(Cc2ccccc2)CC1)Nc1nc(-c2ccccc2)cs1 [TJ-5]
Output line: 42 min
